# Assay protocol: amyloid nucleation score (Sup35N fusion, yeast selection) (log enrichment); library NNK3; higher = more nucleation; inactive = no reads after selection;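 further: zero at mode of non-aggregating sequences after 7 days selection at 30°C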
Measurement kind: amyloid nucleation score

{"columns": ["Substance", "Measurement kind", "Recorded measurement"],
 "data": [
  ["EDYRVGW", "amyloid nucleation score", "inactive"],
  ["NLVWFHIATEVIERNVGGGN", "amyloid nucleation score", "inactive"],
  ["VSMRPMTSSRLKRFKYRYLY", "amyloid nucleation score", "inactive"],
  ["VSATSQYQSICLSLNTKNRF", "amyloid nucleation score", "inactive"]
]}

Query block: Reported amyloid nucleation score, substance "TAVVKW" : ____
Result block: inactive

Query block: Reported amyloid nucleation score, substance "MGNRNDSNLTRCWESTLVVK" : ____
Result block: inactive

Query block: Reported amyloid nucleation score, substance "VMTITLVLKWYGLLT" : ____
Result block: inactive

Query block: Reported amyloid nucleation score, substance "YSLCLGIAHVRMSTARYYLA" : ____
Result block: inactive

Query block: Reported amyloid nucleation score, substance "FNTRQSNLKDDMVSFHDSDL" : ____
Result block: inactive

Query block: Reported amyloid nucleation score, substance "LFLMLG" : ____
Result block: inactive

Query block: Reported amyloid nucleation score, substance "ELGGFFNEAGVTNHPIMS" : ____
Result block: inactive

Query block: Reported amyloid nucleation score, substance "MVIAPGEKTNNLSSAHRWSN" : ____
Result block: inactive

Query block: Reported amyloid nucleation score, substance "DGKFRSNWSYGVLWMLVFLY" : ____
Result block: inactive

Query block: Reported amyloid nucleation score, substance "CCGGFIVMQQAGGSPIDGQG" : ____
Result block: 0.29

Query block: Reported amyloid nucleation score, substance "WAHLGLDNMYKVLCSRGANA" : ____
Result block: inactive

Query block: Reported amyloid nucleation score, substance "GITRVRSSFVSAASHV" : ____
Result block: inactive

Query block: Reported amyloid nucleation score, substance "SLGYGDI" : ____
Result block: inactive

---

# Assay protocol: amyloid nucleation score (Sup35N fusion, yeast selection) (log enrichment); library NNK2; higher = more nucleation; inactive = no reads after selection
Decide by amyloid nucleation score: equal to or exceeding 0.7 means met, less means not met.

{"columns": ["Substance", "Label class"],
 "data": [
  ["MHRLRYKATVFGLNNDDMPP", "met"],
  ["LSGLRRPNRFLYT", "not met"],
  ["LKWQSYG", "met"],
  ["YMDMWGR", "not met"]
]}

Query block: Could you verify whether the entry "KFWDLC" shows amyloid nucleation score of no less than 0.7?
Result block: not met

Query block: Could you verify whether the entry "DFTRYYFYIPHRRVHTVH" shows amyloid nucleation score of no less than 0.7?
Result block: not met

---

# Assay protocol: amyloid nucleation score (Sup35N fusion, yeast selection) (log enrichment); library NNK2; higher = more nucleation; inactive = no reads after selection
Decide by amyloid nucleation score: equal to or exceeding 0.2 means y, less means n.

Query block: Could you verify whether the entry "LGPTVYDFLHMCFYFRA" shows amyloid nucleation score of no less than 0.2?
Result block: y

Query block: Could you verify whether the entry "VITSYVRRQCVKFCCGARCR" shows amyloid nucleation score of no less than 0.2?
Result block: y

Query block: Could you verify whether the entry "DNMGMRSGSSDLHREVWSHC" shows amyloid nucleation score of no less than 0.2?
Result block: n

Query block: Could you verify whether the entry "VNVYLFYYYPHSSHCYIF" shows amyloid nucleation score of no less than 0.2?
Result block: y

Query block: Could you verify whether the entry "PRPVLAAALAKPLGTS" shows amyloid nucleation score of no less than 0.2?
Result block: y

Query block: Could you verify whether the entry "VCGVNV" shows amyloid nucleation score of no less than 0.2?
Result block: n

Query block: Could you verify whether the entry "IDSDKEAFRTFLWTLDMYRL" shows amyloid nucleation score of no less than 0.2?
Result block: n

The values you see were collected from the supplement of paper PMC12042874.
